experiment: DSSTox (CPDBAS) Carcinogenic Potency Database Summary MultiCellCall Results; settings: animal carcinogenicity bioassays, multi-cell call summary
Active and inactive are the calls of the source.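 Rule for the calls: active = tumour findings in long-term animal cancer tests in more than one sex, species or organ; inactive = no tumour finding and more than one negative test.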
Bench note: report the call from class 1 for active, class 0 for inactive

Below are worked cases with known answers.
| MOLECULE | ASSIGNED_CATEGORY |
| --- | --- |
| O=c1cc[nH]c(=S)[nH]1 | class 1 |
| COC(=O)C1=C(C)NC(C)=C(C(=O)OCCN2CCN(C(c3ccccc3)c3ccccc3)CC2)C1c1cccc([N+](=O)[O-])c1 (stereo unspecified) | class 0 |
| CCNC(=O)N(CCN(C)C)N=O | class 1 |
| CN(N)C=O | class 1 |
| C[C@]12CC[C@H](OS(=O)(=O)O)CC1=CC[C@@H]1[C@@H]2CC[C@]2(C)C(=O)CC[C@@H]12 | class 0 |

Q: Record lookup: outcome of this test for c1ccc(OCC2CO2)cc1 (stereo unspecified) ?
Result: class 1

Q: In this assay, the call recorded for CC(=O)C1C(=O)C=C(C)OC1=O (stereo unspecified) was what?
Result: class 0

Q: Called result for N[C@@H](Cc1ccc(N(CCCl)CCCl)cc1)C(=O)O
Result: class 1

Q: Outcome? CCc1ccc(C(c2ccc(CC)cc2)C(Cl)Cl)cc1
Result: class 0

Q: Test call for this molecule, please: COc1cccc2c1C(=O)c1c(O)c3c(c(O)c1C2=O)C[C@@](O)(C(=O)CO)C[C@@H]3O[C@H]1C[C@H](N)[C@H](O)[C@H](C)O1
Result: class 0

Q: Please let me know the test result on file for CCN(CC(F)(F)F)N=O .
Result: class 1

====

experiment: DSSTox (CPDBAS) Carcinogenic Potency Database Summary MultiCellCall Results; details: animal carcinogenicity bioassays, multi-cell call summary
The source made the active and inactive calls.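 The calls were made as follows: active = tumour findings in long-term animal cancer tests in more than one sex, species or organ; inactive = no tumour finding and more than one negative test.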
Answer with one of the outcomes given here: Yes (active), No (inactive)

A selection of reference data follows.
| COMPOUND | ASSIGNED_CATEGORY |
| --- | --- |
| CC1=CC(=C(c2ccc(N)cc2)c2ccc(N)cc2)C=CC1=N | No |
| CNC[C@H](O)c1cccc(O)c1 | No |
| COCCl | Yes |
| CN(C)CCN(Cc1ccsc1)c1ccccn1 | No |

Q: I would be grateful if you could indicate the recorded call for CCN(CC)C(=S)[S-].CCN(CC)C(=S)[S-].[Cd+2] .
Result: No

Q: Recorded test outcome, item ClCc1cccnc1
Result: Yes

Q: What did this assay record as the result for Nc1ncn[nH]1 ?
Result: Yes

Q: Could you check what this test reported for CN(C)C(=O)Nc1ccc(Cl)cc1 ?
Result: Yes

Q: For Nc1ccc(N=Nc2ccc(-c3ccc(N=Nc4c(S(=O)(=O)O)cc5cc(S(=O)(=O)O)c(N=Nc6ccccc6)c(O)c5c4N)cc3)cc2)c(N)c1 , what call appears in the results of this test?
Result: Yes

Q: What was the test verdict on C[C@]12CCC(=O)C=C1CC[C@@H]1[C@@H]2[C@@H](O)C[C@@]2(C)[C@H]1CC[C@]2(O)C(=O)CO ?
Result: No

Q: Give the logged outcome of this assay for the following compound: CCC1C(=O)OCC1Cc1cncn1C (configuration not stated)
Result: No

Q: Given OC[C@@H](O)[C@H]1O[C@@H]2O[C@H](C(Cl)(Cl)Cl)O[C@@H]2[C@H]1O , state the outcome it received in this test.
Result: No

====

Assay: DSSTox (CPDBAS) Carcinogenic Potency Database Summary MultiCellCall Results
Conditions: animal carcinogenicity bioassays, multi-cell call summary
Source text: The Carcinogenic Potency Database (CPDB) is a unique and widely used international resource of the results of over 6500 chronic, long-term animal cancer tests on over 1500 chemical substances. The CPDB provides easy access to the bioassay literature, with qualitative and quantitative analyses of both positive and negative experiments that have been published over the past 50 years in the general literature and by the National Cancer Institute/National Toxicology Program. […]
Calls of active or inactive are those of the source.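 The calls were made as follows: active = tumour findings in long-term animal cancer tests in more than one sex, species or organ; inactive = no tumour finding and more than one negative test.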
Your reply should match one of these outcome classes. active, inactive

Here's what some known entries look like.
| COMPOUND | ASSIGNED_CATEGORY |
| --- | --- |
| O=P(O)(O)O | inactive |
| NNC(=O)c1ccncc1 | active |
| CCCCNC(=O)N(CCCC)N=O | active |
| OCCBr | active |
| NC(=O)N(CC(=O)O)N=O | active |
| CCOP(=S)(OCC)Oc1nc(Cl)c(Cl)cc1Cl | inactive |

Q: Recorded test call requested for Cn1cc(C(=O)O)c(=O)c2ccc(/C=C/c3ccc([N+](=O)[O-])o3)nc21
Result: active

Q: Hi team, can someone confirm the assay call for c1ccc(-c2ccccc2)cc1 ?
Result: inactive

Q: Test call for this compound, please: OCC1CO1 (configuration not stated)
Result: active

Q: Could you check what this test reported for O=S(=O)(Oc1ccc(Cl)cc1Cl)c1ccccc1 ?
Result: inactive

Q: What did this assay record as the result for CCN=c1cc2oc3cc(NCC)c(C)cc3c(-c3ccccc3C(=O)OCC)c-2cc1C ?
Result: inactive

====

assay: DSSTox (CPDBAS) Carcinogenic Potency Database Summary MultiCellCall Results; conditions: animal carcinogenicity bioassays, multi-cell call summary
Activity calls are given as the source filed them.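 How the source made its calls: active means tumour findings in long-term animal cancer tests in more than one sex, species or organ; inactive means no tumour finding and more than one negative test.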
Choose the fitting class; nothing outside active, inactive is accepted.

| COMPOUND | ASSIGNED_CATEGORY |
| --- | --- |
| O=NN1CCC[C@H]1C(=O)O | inactive |

Q: What did the test return for O=S(O)S(=O)(=O)O ?
Result: inactive

Q: Query: recorded result category for [O]=[Mo](=[O])=[O] in this test
Result: active

Q: In this assay, the call recorded for CCCCC(C)(O)C/C=C/[C@H]1[C@H](O)CC(=O)[C@@H]1CCCCCCC(=O)OC (some centres not stated) was what?
Result: inactive

====

assay: DSSTox (CPDBAS) Carcinogenic Potency Database Summary MultiCellCall Results; conditions: animal carcinogenicity bioassays, multi-cell call summary
Active and inactive are the calls of the source.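 The calls were made as follows: active = tumour findings in long-term animal cancer tests in more than one sex, species or organ; inactive = no tumour finding and more than one negative test.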
Return exactly one item of 1.0 = active, 0.0 = inactive

Solved cases below.
| COMPOUND | ASSIGNED_CATEGORY |
| --- | --- |
| O=C1CCc2ccccc2O1 | 1.0 |
| Clc1cc2c(c(Cl)c1Cl)Oc1c(cc(Cl)c(Cl)c1Cl)O2 | 1.0 |
| CC(=O)[O][Hg][c]1ccccc1 | 0.0 |
| CN(CCCO)N=O | 1.0 |
| C=C(Cl)CSC(=S)N(CC)CC | 1.0 |
| O=C(O)CN(CCN(CC(=O)O)CC(=O)O)CC(=O)O | 0.0 |
| CC(Cc1ccccc1)NN (centres undefined) | 0.0 |
| CN(N=O)C1=Nc2ccc(Cl)cc2C(c2ccccc2)=[N+]([O-])C1 | 0.0 |

Q: Tell me the assay call for C=Cc1cccc(C)c1 please.
Result: 0.0

Q: Query: recorded result category for C=CC(N)=O in this test
Result: 1.0

Q: Hey, what did the test say about OC[C@H]1O[C@@](CO)(O[C@H]2O[C@H](CO)[C@@H](O)[C@H](O)[C@H]2O)[C@@H](O)[C@@H]1O ?
Result: 0.0

Q: Tell me the recorded outcome of this test for CC(O)CN(N=O)C(=O)NCCCl (centres undefined) .
Result: 1.0

Q: Short answer needed: outcome of this test for NC(N)=NC(N)=NCCc1ccccc1 ?
Result: 0.0

Q: // return assay outcome for CNC(=O)Oc1cc(C)c(N(C)C)c(C)c1
Result: 0.0

====

test: DSSTox (CPDBAS) Carcinogenic Potency Database Summary MultiCellCall Results; details: animal carcinogenicity bioassays, multi-cell call summary
Calls of active or inactive are those of the source.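 How the source made its calls: active means tumour findings in long-term animal cancer tests in more than one sex, species or organ; inactive means no tumour finding and more than one negative test.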
The categories you may choose from are 1 = active, 0 = inactive

| COMPOUND | ASSIGNED_CATEGORY |
| --- | --- |
| O=C(C1CCCCC1)N1CC(=O)N2CCc3ccccc3C2C1 (stereo not given) | 0 |
| Cc1ccc(Cc2cnc(NCCSCc3ccc(CN(C)C)o3)[nH]c2=O)cn1 | 1 |

Q: Recorded call for CCOC(N)=O ?
Result: 1

Q: How did this test come out for Clc1cccc(-c2ccc(Cl)c(Cl)c2Cl)c1Cl ?
Result: 1

====

assay: DSSTox (CPDBAS) Carcinogenic Potency Database Summary MultiCellCall Results; details: animal carcinogenicity bioassays, multi-cell call summary
Active and inactive are the calls of the source.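 The calls were made as follows: active = tumour findings in long-term animal cancer tests in more than one sex, species or organ; inactive = no tumour finding and more than one negative test.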
Parameter call: string, one of Yes (active), No (inactive)

Answered cases to consult:
| COMPOUND | ASSIGNED_CATEGORY |
| --- | --- |
| CC(CN1c2ccccc2Sc2ccccc21)N(C)C (stereo not given) | No |
| CCCNN | Yes |
| C=CC#N | Yes |

Q: Query: recorded result category for COc1ccc2nc(S(=O)Cc3ncc(C)c(OC)c3C)[nH]c2c1 (stereo not given) in this test
Result: Yes

Q: In this assay, the call recorded for N[C@@H](CCC(=O)NNc1ccc(CO)cc1)C(=O)O was what?
Result: No

Q: Could you please tell me the result logged for ClC1(Cl)C2(Cl)C3(Cl)C4(Cl)C(Cl)(Cl)C5(Cl)C3(Cl)C1(Cl)C5(Cl)C24Cl (stereo not given) in this assay?
Result: Yes

Q: # outcome recorded in this test, key = C[C@@H]1O[C@@]2(CS1)CN1CCC2CC1
Result: No

Q: Would you mind telling me which call this test gave Clc1c(Cl)c(Cl)c(Cl)c(Cl)c1Cl ?
Result: Yes

Hello, the source for this data is PubChem BioAssay AID1205, in case you need it.
